assay: compound binding in COS7 lysate, probe aLAP1, primary screen, cell lysate, small-molecule microarray (AID 1124); conditions: probe aLAP1, fluorescence, higher = more signal;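 also: lysate comes from COS7 cells expressing LAP1 and is applied at 0.3 µg/mL; score merges spot fluorescence near 667 nm with signal-to-noise over triplicate slides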
Classes are defined on composite z-score with ranges low bin: < -0.1; mid bin: ≥ -0.1 and < 0.09; high bin: ≥ 0.09

# example entries with known answers
[
  {
    "compound": "CC(=O)OC[C@H]1O[C@H](CC=NOC(C)CN2CCCc3nc(C)c(C)cc32)C=C[C@@H]1OC(C)=O (stereo partly specified)",
    "class": "high bin"
  },
  {
    "compound": "CO[C@@H](C(C)C)[C@@H](C)C1OC(=O)CC1O (stereo partly specified)",
    "class": "low bin"
  },
  {
    "compound": "CCN1C(=O)[C@H]2[C@H]3[C@H](O)[C@H](O)CC(=NNC(=O)OCc4ccccc4)[C@@H]3CC[C@H]2C1=O",
    "class": "low bin"
  }
]

With those in mind, consider the next compound.
Qu. Class label required: `COCC#Cc1ccc([C@@H]2N[C@H](C(=O)O)CC[C@H]2C)cc1`
Ans. low bin

====

assay: small-molecule binders of probe aLefty1, primary screen, biochemical, small-molecule microarray, 635/667 nm fluorescence (AID 1153); details: higher = more signal;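 also: score merges spot fluorescence with signal-to-noise ratio from the scanned slide images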
This listing pairs molecules with measured composite z-score.
Returns: the value as a bare number; no unit string appended.

[
  {
    "molecule": "CCCNC(=O)OC[C@H]1O[C@H](CCON=C[C@@H](NS(=O)(=O)c2ccc(C)cc2)[C@H](C)C=CCC(=O)OC)C=C[C@@H]1Oc1ccc(OC)cc1",
    "measured.property": "composite z-score",
    "val": 0.0633
  }
]

Qu. # get_value(readout='composite z-score', item= COC(=O)[C@H](C)NC(=O)CCC1CC(OC(=O)NCc2ccc3c(c2)OCO3)CC2(CCCC(COC(=O)NCc3ccccc3)O2)O1 (stereo not given in full) )
Ans. -0.0061

Qu. Can you check `CCN1C(=O)[C@H]2[C@H]3[C@H](O)[C@H](O)CC(=NOC[C@@H](O)COCc4ccco4)[C@H]3CC[C@H]2C1=O` next?
Ans. -0.22

Qu. Can you check `C#CCCCON=C1[C@H]2CCn3c(=O)n([C@@H](CC)c4ccccc4)c(=O)n3[C@H]2[C@H](O)[C@@H]2O[C@H]12` next?
Ans. -0.101

====

assay: basal RPMI8226 viability, no added stimulus, profiling panel, cell-based, calcein-AM fluorescence, 48 h, PK04 Diversity Set (AID 1166); settings: RPMI8226 myeloma viability, higher = more signal;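 also: cells grown under basal conditions without added stimulus; test concentration not given here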
Classes are defined on z-score with ranges low bracket: < -1; middle bracket: ≥ -1 and < -0.04; high bracket: ≥ -0.04

# example entries with known answers
[
  {
    "compound": "CON(C)C(=O)c1nnc2c(n1)[nH]c1ccccc12",
    "class": "high bracket"
  },
  {
    "compound": "C=CC[C@@H]1C=C[C@H](ON=CC[C@@H]2C=C[C@H](OC(C)=O)[C@@H](COC(C)=O)O2)[C@@H](CO)O1",
    "class": "middle bracket"
  },
  {
    "compound": "CON=C(C)CCN1CCCc2nc(C)c(C)cc21",
    "class": "middle bracket"
  },
  {
    "compound": "OC[C@H]1O[C@H](C#Cc2ccccc2)C=C[C@@H]1O",
    "class": "low bracket"
  },
  {
    "compound": "COc1ccc(OC[C@H]2CN3[C@@H](CC[C@@H](C)[C@@H]3c3ccc(Br)cc3)C(=O)O2)cc1",
    "class": "low bracket"
  }
]

Qu. Class label required: `CCN1C(=O)[C@H]2[C@@H]3C(=CC[C@H]2C1=O)C(=O)[C@H]1O[C@H]1[C@H]3O`
Ans. low bracket

Qu. Can you check `CC(=O)OC[C@H]1O[C@H](C#CCCc2ccccc2)C=C[C@@H]1OC(C)=O` next?
Ans. low bracket

Qu. Can you check C[C@H]1CC[C@H]2C(=O)OC(COc3ccc(C(C)(C)C)cc3)CN2[C@@H]1c1ccc(Br)cc1 (stereo partly drawn) next?
Ans. high bracket

Qu. Can you check `COc1cccc([C@H]2Oc3ccc(OC)cc3C(=NOCC[C@@H]3C=C[C@H](OC(C)=O)[C@@H](COC(C)=O)O3)[C@@H]2O)c1` next?
Ans. low bracket

Qu. Can you check `CC(CCN1CCCc2nc(C)c(C)cc21)=NO[C@H](C)c1cn([C@@H]2COC[C@H]2O)nn1` next?
Ans. high bracket

Qu. Can you check `CSCC[C@@H]1NC(=O)CC=C[C@@H](C)COC(=O)[C@H](C)COC1=O` next?
Ans. high bracket

Qu. Can you check `COC(=O)[C@H](Cc1ccccc1)NC(=O)[C@@H](C)CO` next?
Ans. low bracket

Qu. Can you check `CC(=O)OC[C@H]1O[C@H](CC=NOCC[C@@H]2C=C[C@H](OC(C)=O)[C@@H](COC(C)=O)O2)C=C[C@@H]1OC(C)=O` next?
Ans. middle bracket

Qu. Can you check `C[C@@H](c1ccccc1)N1C(=O)[C@H]2[C@H]3[C@H](O)[C@H](O)CC(=NOCc4ccccc4)[C@@H]3CC[C@H]2C1=O` next?
Ans. low bracket

Qu. Can you check `CN1CCc2nc(-c3ccccc3)c(-c3ccccc3)cc2C1` next?
Ans. high bracket

Qu. Can you check `CCN1C(=O)[C@H]2[C@H]3[C@H](O)[C@H](O)CC(=NO[C@H](C)c4cn([C@@H]5COC[C@H]5O)nn4)[C@@H]3CC[C@H]2C1=O` next?
Ans. high bracket

Qu. Can you check CCOC(=O)[C@H](Cc1ccccc1)NC(=O)CCC1CC(OC(=O)NCCc2ccc(F)cc2)CC2(CCCC(COC(=O)NCCOc3ccccc3)O2)O1 (stereo partly drawn) next?
Ans. low bracket

Qu. Can you check COC(=O)[C@H](C)NC(=O)CCC1CC(OC(=O)NCc2cccc3ccccc23)CC2(CCCC(COC(=O)NCc3cccc(C(F)(F)F)c3)O2)O1 (stereo partly drawn) next?
Ans. high bracket

Qu. Can you check CCOC(=O)[C@H](Cc1ccccc1)NC(=O)CCC1CC(OC(=O)NCc2ccc3c(c2)OCO3)CC2(CCCC(COC(=O)NCCOC)O2)O1 (stereo partly drawn) next?
Ans. low bracket

Qu. Can you check `CC(C)=NO[C@@H](C)c1cn([C@H](CO)Cc2ccccc2)nn1` next?
Ans. middle bracket

Qu. Can you check `C[C@@H]1C=CCC(=O)OC[C@H](C)C(=O)N[C@@H](Cc2ccccc2)C(=O)OC1` next?
Ans. middle bracket

Qu. Can you check `C=CC[C@@H]1C=C[C@H](ON=C2C[C@@H](O)[C@@H](O)[C@@H]3[C@@H]4C(=O)N(CC)C(=O)[C@@H]4CC[C@@H]23)[C@@H](CO)O1` next?
Ans. low bracket
